# pIC50 annotations
# test-target: PI3K alpha (Homo sapiens)
# Construct: for the p110-a subunit (with a deletion of the first 20 amino acids) are generated; His tag (C); Tn5 (Trichoplusia ni) or TiniPro insect cells
# Sequence (P42336 with tags, fused parts or gaps limits assumed, species assumed): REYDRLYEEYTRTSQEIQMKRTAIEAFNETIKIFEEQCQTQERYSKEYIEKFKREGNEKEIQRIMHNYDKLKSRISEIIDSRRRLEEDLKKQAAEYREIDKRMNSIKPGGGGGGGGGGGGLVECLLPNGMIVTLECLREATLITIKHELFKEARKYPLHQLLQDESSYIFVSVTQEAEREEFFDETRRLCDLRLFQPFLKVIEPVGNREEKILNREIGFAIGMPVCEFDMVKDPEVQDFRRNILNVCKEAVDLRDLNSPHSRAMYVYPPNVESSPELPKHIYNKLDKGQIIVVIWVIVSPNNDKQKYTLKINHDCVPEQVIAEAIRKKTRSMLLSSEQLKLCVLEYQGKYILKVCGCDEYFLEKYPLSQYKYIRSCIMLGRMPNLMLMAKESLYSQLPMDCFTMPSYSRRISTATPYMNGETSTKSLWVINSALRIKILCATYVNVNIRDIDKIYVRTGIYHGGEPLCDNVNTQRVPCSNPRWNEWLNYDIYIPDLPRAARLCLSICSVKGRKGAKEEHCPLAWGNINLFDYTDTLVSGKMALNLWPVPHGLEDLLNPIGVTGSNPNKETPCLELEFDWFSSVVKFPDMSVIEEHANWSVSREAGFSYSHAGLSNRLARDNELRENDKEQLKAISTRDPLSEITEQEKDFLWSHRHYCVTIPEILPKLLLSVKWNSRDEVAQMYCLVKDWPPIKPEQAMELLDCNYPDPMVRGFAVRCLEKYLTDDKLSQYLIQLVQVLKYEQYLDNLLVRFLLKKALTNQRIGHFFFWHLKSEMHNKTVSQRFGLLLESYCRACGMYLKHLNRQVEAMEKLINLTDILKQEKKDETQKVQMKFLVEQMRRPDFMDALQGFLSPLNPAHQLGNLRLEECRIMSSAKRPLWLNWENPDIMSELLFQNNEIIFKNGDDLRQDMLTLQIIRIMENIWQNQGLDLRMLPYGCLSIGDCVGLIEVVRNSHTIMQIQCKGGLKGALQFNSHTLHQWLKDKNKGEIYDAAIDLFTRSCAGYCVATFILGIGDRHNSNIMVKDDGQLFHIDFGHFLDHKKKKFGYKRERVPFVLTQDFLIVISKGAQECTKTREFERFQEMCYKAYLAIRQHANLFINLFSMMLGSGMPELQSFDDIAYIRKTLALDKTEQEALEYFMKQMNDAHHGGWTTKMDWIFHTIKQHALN
# procedure-details: Enzymatic PI3K alpha isoform inhibition (lipid kinase activity, Kinase-Glo)
# reported-conditions: enzymatic assay
pIC50: −log10 of the molar value.
property-measured: pIC50

INSERT INTO measurements (compound, test_target, readout_number) VALUES
  ('CN1CCN(C(=O)c2cccc(-c3ncnc4ccc(-c5ccc(N6CCNCC6)nc5)cc34)c2)CC1 [Example 18]', 'PI3K alpha (Homo sapiens)', 5.89),
  ('COc1ccc(-c2ccc3ncnc(-c4cccc(C(=O)N5CC6CC5CN6)c4)c3c2)cn1 (stereo not drawn) [Example 38]', 'PI3K alpha (Homo sapiens)', 6.43),
  ('CNc1ccc(-c2ccc3ncnc(-c4cccc(C(=O)N5CCN(C)CC5)c4)c3c2)cn1 [Example 41]', 'PI3K alpha (Homo sapiens)', 6.15),
  ('CC(=O)N1CCN(C(=O)c2cccc(-c3ncnc4ccc(-c5cnc(N)nc5)cc34)c2)CC1 [Example 8]', 'PI3K alpha (Homo sapiens)', 6.57),
  ('COc1ccc(-c2ccc3ncnc(-c4ccc(C)c(C(=O)N5CC6CC5CN6C)c4)c3c2)cn1 (stereo not drawn) [Example 117]', 'PI3K alpha (Homo sapiens)', 6.62),
  ('COc1ccc(-c2ccc3ncnc(-c4ccc(C)c(C(=O)N5CCN(C(C)C)CC5)c4)c3c2)cn1 [Example 116]', 'PI3K alpha (Homo sapiens)', 6.51);
